Assay: Tissue residues of sanguinarine and chelerythrine after 3 weeks of intragastric M. cordata extracts (HPLC-MS/MS)
Conditions: both, SD, rat, in vivo, 5 mg/kg, Residue in lung, 24 h after last dose, M. cordata extracts 5 mg/kg intragastric for 3 weeks
MEASURED_ENDPOINT: concentration at 24 h (ng/g)
Kindly provide the numeric value in ng/g only, without the unit symbol.

Q) Return concentration at 24 h for the following molecule: "C[n+]1cc2c3c(ccc2c2ccc4cc5c(cc4c21)OCO5)OCO3"
A) 2.29

---

Test: Tissue residues of sanguinarine and chelerythrine after 3 weeks of intragastric M. cordata extracts (HPLC-MS/MS)
Settings: both, SD, rat, in vivo, 5 mg/kg, Residue in liver, 48 h after last dose, M. cordata extracts 5 mg/kg intragastric for 3 weeks
MEASURED_ENDPOINT: concentration at 48 h

Q) Return concentration at 48 h for the following compound: C[n+]1cc2c3c(ccc2c2ccc4cc5c(cc4c21)OCO5)OCO3 [Sanguinarine]
A) 9.8 ng/g

Data credit: paper PMC8187775
